# System: BT-549 breast
# Assay Name: NCI-60 one-dose screen, 48 h (100 = growth as untreated, 0 = no growth, -100 = all killed)
# Test Context: 10 µM unless noted
# Experimental: Growth inhibition of the BT-549 human tumor cell line is measured as a screen for anti-cancer activity. Cells are grown in 96 well plates and exposed to the test compound for 48 hours. Compounds are tested at a single concentration, which is 10^-5 M for most compounds. The reported endpoint is percent growth (GI% or GIPRCNT), where numbers from 0 - 100% represent growth inhibition, and numbers from -100% - 0 represent cell death. For example, a value of 40 represents 60% growth inhibition. […]
This is part of a sample that, as a whole, favours compounds with a hit. Of some 83,000 tested, about 20% had one in any assay. The source made the active and inactive calls. The calls were made as follows: active = growth percent below 10; inactive = the rest.
Reported Metric: growth

# Compound, Result
rows = [
    ("O=C(COc1ccc(/C=C2\\CSc3ccccc3C2=O)cc1)c1ccc(Cl)cc1", "110% (inactive)"),
]

Look at each compound and report its growth.
1. N#Cc1ccc(C(F)(F)F)nc1N1CCC(C(=O)Nc2ccc(Cl)cc2)CC1
2. COC1(OC)C2(Cl)C=C(c3ccccc3)C1(Cl)C(Cl)=C2Cl (stereo unspecified)
3. Cc1cc(=O)c2c(C)ccc(C)c2[nH]1
4. Cn1c2ccc(Cl)cc2c2nn(C(=O)c3ccccc3)c(=O)nc21
5. NC(=O)c1cccc(-n2ccc3cc(NC(=O)Nc4ccc(Cl)c(Cl)c4)ccc32)n1
6. COc1ccc(Nc2nc(NCCNc3ccnc4cc(Cl)ccc34)nc(N3CCOCC3)n2)cc1

70.8% (inactive)
88.2% (inactive)
123% (inactive)
122% (inactive)
65.8% (inactive)
83.7% (inactive)

# map each compound to its growth
1. CC(C)(C)[Si](C)(C)OC1[C@@H](O[Si](C)(C)C(C)(C)C)[C@@H](CNC(=O)NC(=O)C(F)(F)F)O[C@H]1n1cnc2c(NC(=O)Nc3ccccc3)ncnc21 (stereo partly specified)
2. COc1ccc(/C=C(\C#N)c2cc3ccccc3n2C)cc1

1. 96% (inactive)
2. 51.2% (inactive)

For the 7 compounds below, give their growth values.
1. COc1ccccc1-n1c(SCc2cc(OC)c(OC)c(OC)c2)nc2ccc(Cl)cc2c1=O
2. C=C(C)COC(=O)c1ccccc1C(=O)OCC1(C)CO1 (stereo unspecified)
3. O=C(O)CCN1CCN(c2cccc(Cl)c2)CC1
4. COC(=O)[C@H]1CCCN1C(=O)[C@H]1CCCN1C(=O)[C@@H](Cc1c[nH]c2ccccc12)NC(=S)Nc1cc(C(F)(F)F)cc(C(F)(F)F)c1
5. COc1cc(OCc2cccc(-c3ccc(C(O)c4nccs4)cc3)c2C)cc(OC)c1C=O (stereo unspecified)
6. Cn1cc(C(=O)NCCC(=N)N)cc1NC(=O)CN=C(N)N
7. CCCCCCCCCCCCCCNc1nc(CO)ncc1-c1ccc(C(F)(F)F)cc1

39.5% (inactive)
102% (inactive)
104% (inactive)
91.9% (inactive)
39.6% (inactive)
99.9% (inactive)
110% (inactive)
